Data provenance is ChEMBL document CHEMBL1201862.

Catalogue of compounds with associated GI50
System: SK-MEL-2
Experiment: NCI tumour cell line growth inhibition, 48 h
The source made the active and inactive calls. Rule as the data show it: active = GI50 up to about 1.1 µM and inactive = higher.

compound: CCc1cccc(C(C)C)c1NC(=O)C(=O)C(C(=O)C(=O)OC)c1nc2ccccc2nc1O (configuration not stated)
target: SK-MEL-2
GI50: > 100 µM (inactive)
--
compound: CC(=O)/C=C1\CC(=O)Nc2ccccc2N1
target: SK-MEL-2
GI50: > 100 µM (inactive)
--
compound: NC(=O)CCC(NC(=O)c1c2ccccc2nc2ccccc12)C(=O)O (configuration not stated)
target: SK-MEL-2
GI50: > 100 µM (inactive)

*Q* // fetch SK-MEL-2 GI50 for O=c1[nH]c(=O)n([C@H]2C[C@@H](CO)[C@@H](O)C2)cc1I
*A* > 100 µM (inactive)

*Q* Now consider O=C1CC(NC(=O)C(F)(F)F)c2c1csc2Br (configuration not stated) .
*A* > 100 µM (inactive)

*Q* Next compound: CN1CN(c2ccccc2)C2(CCN(CCCN(C)c3ccc(F)cc3)CC2)C1=O
*A* 17.5 µM (inactive)

*Q* Also, CCN(CC)CC1CCCCN1CC(=O)N1c2ccccc2NC(=O)CC1C (configuration not stated) please.
*A* > 100 µM (inactive)

*Q* Query O=C(O)c1cccc(/C=C/c2ccccc2)c1 next
*A* > 100 µM (inactive)

---

System: HT-29
Assay: NCI tumour cell line growth inhibition, 48 h
The source made the active and inactive calls. No stated cut-off is given here; in the data, active = GI50 up to about 1.1 µM and inactive = higher.
valueType: GI50

Please review the following examples before continuing.
compound: COc1ccc2c(ccc3c(C(=O)NCCN(C)CCNC(=O)c4cn(C)c5c4ccc4cc(OC)ccc45)cn(C)c32)c1
result: 1.4 µM (inactive)
//
compound: CCC(C)N1CN(c2ccccc2)C2(CCN(CCCC3(c4ccc(F)cc4)OCCO3)CC2)C1=O (stereo not given)
result: 2.87 µM (inactive)
//
compound: O=c1cc(/N=N\c2ccc(Cl)c(Cl)c2)[nH]c(=O)[nH]1
result: 1.73 µM (inactive)
//
compound: CCOc1ccc(/C(C=O)=C(\Cl)c2ccc(OC)cc2)cc1
result: > 39.4 µM (inactive)
//
compound: C=CCc1cc(-c2cc(CC=C)c(O)c(CNCCCl)c2)cc(CNCCCl)c1O
result: 17.4 µM (inactive)

*Q* // map CCOC(=O)c1nc2ccc(C(F)(F)F)cc2nc1NCc1cc(OC)c(OC)c(OC)c1 to recorded GI50 (system: HT-29)
*A* 59.6 µM (inactive)

*Q* Proceed to CCOC(=O)N1CCN(P(=O)(Nc2ccc3[nH]c(NC(=O)OC)nc3c2)Oc2ccccc2)CC1 (stereo not given)
*A* > 100 µM (inactive)

*Q* Please give the result for CCCC(=O)NC1=C(Cl)C(=O)c2ccccc2C1=O too.
*A* 8.49 µM (inactive)

*Q* Another compound to look at: CC(C)N(C(=O)C12C3C4C5C3C1(C(=O)N(C(C)C)C(C)C)C5C42)C(C)C (stereo not given)
*A* > 100 µM (inactive)

*Q* Now the same for CC(=O)OCC1OC(n2c(=O)[nH]c(=O)c3sccc32)C(Br)C1OC(C)=O (stereo not given)
*A* > 100 µM (inactive)

---

Parameter 'readout' = GI50; parameter 'system' = HCT-15.
Lab book: enter the figure in µM, no units written.

molecule: CC(=O)O/N=C1\C=Cc2c(no[n+]2[O-])C1=O
GI50, µM: 19.8
--
molecule: CCOC(=O)c1nc2ccc(C(F)(F)F)cc2nc1NCc1cc(OC)c(OC)c(OC)c1
GI50, µM: 48.9
--
molecule: COc1ccc(-c2cc3cc(Cl)cc(Cl)c3oc2=O)cc1OC
GI50, µM: 48.8

*Q* GI50 for O=[N+]([O-])c1cccc(-c2ccc([C@H]3CC(c4ccc(Cl)cc4)=NN3)o2)c1 ?
*A* 5.15

*Q* Query CC(C)=CC1CC(C)C2(CCC3(C)CC4C(C(=O)CC4(C)O)/C(C=O)=C\CC32)O1 (configuration not stated) next
*A* 0.0243
